Target: KEAP1_(312–624), human KEAP1 Kelch repeat domain (human) (UniProt Q14145)
Test: fluorescence polarisation
MEASURED_PROPERTY: pKd
Keep in mind that pKd stands for -log10 of concentration in molar terms.

Record Nrf2_(34–100) E82A (domain or fragment) REVFDFSQRRKEYELEKQKKLEKERQEQLQKEQEKAFFAQLQLDEETGAFLPIQPAQHIQSETSGSA , field pKd: 4.66

Record Nrf2_(34–100) wild type (domain or fragment) REVFDFSQRRKEYELEKQKKLEKERQEQLQKEQEKAFFAQLQLDEETGEFLPIQPAQHIQSETSGSA , field pKd: 8.00

Record Nrf2_(34–100) E79A (domain or fragment) REVFDFSQRRKEYELEKQKKLEKERQEQLQKEQEKAFFAQLQLDEATGEFLPIQPAQHIQSETSGSA , field pKd: 5.77

Source listed as paper PMC8177486.
